Assay: protein stability index of a GFP-peptide fusion (yeast GPS) (PSI 1-4); higher = more stable; sorted into four equal gates, so the index is relative within each strain
Details: doa10∆
Kindly supply the reported protein stability index values for the records listed here.

Some solved entries appear below for comparison.
YRCFAQLELRQLNASIS [RRI2] ... 3.06
VSFNDSQSMVTNKENNI [YIL149C/MLP2] ... 2.96
AMEFIFGNSLICEDPET [SMC2] ... 2.38
VDENETVLESLGRLNKL [LIN1] ... 2.79
KYREGQVLFQGLIYSFN [POP1] ... 2.46
KRIESLQKDLQRQKTYV [SMC1] ... 3.01
GSIEEPELNVSLNLTDD [MCD1] ... 3.38
VVVVGTVTDDARIFEFP [RPL18A] ... 2.75
HGMSVDPRHIQLLGDVM [RPO31] ... 2.73
YELYINKLTILGRDYPI [IRR1] ... 1.31

Would you mind listing protein stability index for each of the following sequences?
1. SVIPEVDREAMLKPNII [YCG1]
2. HHELVPKHIRLSSDEKR [RPB5]
3. QELQIKRDVLDDLYRKL [CSE2]
4. QHIYPSSTPGVANYSAM [GAL11]
5. DKRFSGSLKLPNCPRPN [RPL1A]
6. EKKGIVQASVTSSTHER [RET1]
7. TLVHTRVKIANTSAATV [SSN2]

Outgoing:
[3.06, 2.9, 2.27, 2.85, 2.77, 3.28, 2.35]

Would you mind listing protein stability index for each of the following sequences?
1. GKKSSSSTKDYLTPPHE [RET1]
2. GDPALVYKFMSLAKSSA [ECM29]
3. KKEANLFPEQQTKEIKT [RPL6B]
4. ASVGDILKTLERSICAL [YML031W/NDC1]

Outgoing:
1. 3.72
2. 3.22
3. 2.62
4. 2.12

Would you mind listing protein stability index for each of the following sequences?
1. FLDGIYVSHKGFITEDL [RPL9A]
2. RYADAGNIDTKNNILGS [RRP43]
3. LLISDTESNELIQKLQN [IRR1]

Outgoing:
1: 2.38; 2: 3.31; 3: 2.79

* * *

Assay: protein stability index of a GFP-peptide fusion (yeast GPS) (PSI 1-4); higher = more stable; sorted into four equal gates, so the index is relative within each strain
Settings: ubr1∆
TEST READOUT: protein stability index

Would you mind listing protein stability index for each of the following sequences?
1. KIAVLNNDKREIQEELE [SMC1]
2. RVKIANTSAATVHTATS [SSN2]
3. SLTEKFSQTVADNNDLQ [ECM29]
4. LASEVGDPALVYKFMSL [ECM29]
5. EGYGLRDVMCTDGVIGS [RPO31]
6. TGKFVLQGQMEKIMILL [CSN12]

Outgoing:
3.25
2.52
2.35
2.05
2.84
1.51

* * *

Kindly supply the reported protein stability index values for the records listed here.
Test: protein stability index of a GFP-peptide fusion (yeast GPS) (PSI 1-4); higher = more stable; sorted into four equal gates, so the index is relative within each strain
Conditions: san1∆
Give bare numbers.

Some solved entries appear below for comparison.
KWPEYVRVQRQKKILSI [RPL8A] ... 1.15
QQQTNALNGIDINTVNT [GRR1] ... 3.24
SMFLRIDYSNSQIRLYA [RGR1] ... 2.4
YQELAYRATSLDPSLRA [YML031W/NDC1] ... 2.83
RGFFDILSLATEGCIGL [MCD1] ... 2.52

Would you mind listing protein stability index for each of the following sequences?
1. DIGSDPTLPRSDRECPK [RPB9]
2. RRVPKELAVENPLAKTM [SEC65]
3. KRSQKKHKKKHLKHENA [RPB4]
4. GHIPWHILAVKKMMNTL [SSN2]

Outgoing:
2.85
2.47
3.09
2.74

* * *

Assay: protein stability index of a GFP-peptide fusion (yeast GPS) (PSI 1-4); higher = more stable; sorted into four equal gates, so the index is relative within each strain
Details: doa10∆
Decide by protein stability index: equal to or exceeding 3 means YES, less means NO.

A selection of reference data follows.
NSTNSNTTKPAFGGLNF [YJL041W/NSP1] ... YES
VIAHLTVEALDFREKAL [RET1] ... NO

Incoming: Hello, I need to know if GNTVVDGEGKVDSISLH [YCG1] has measured protein stability index not below 3. Thanks!
Outgoing: YES

Incoming: Next sequence: IKNVQDLLILTRSIKEK [SRB6]
Outgoing: NO

Incoming: Next sequence: LREAPADYWTHAYRDVL [SNF6]
Outgoing: NO

* * *

Kindly supply the reported protein stability index values for the records listed here.
Assay: protein stability index of a GFP-peptide fusion (yeast GPS) (PSI 1-4); higher = more stable; sorted into four equal gates, so the index is relative within each strain
Conditions: pdr5∆
Numbers only.

IPSSYIKRTDEGGEAEF [ARP7] ... 3.14
TESITHDSSNGLFQVLH [NUT1] ... 3.22
KALQSIGQLIGEVMKEL [RPT4] ... 3.17
QEAIQQNRRLAFEELEG [PRP8] ... 2.62
LDDPEAVSKDPLLTKRK [DIS3] ... 3.44
VQGMNDDIFIRYLTLLS [ECM29] ... 1.39
KEISTRVFNAKDTTGPK [YCS4] ... 2.91
YIKYNILLTSISRERDL [SRP68] ... 1.58
EIFHLLQPLEEGLIIDT [SIN4] ... 2.13
KIMNVTTDSLTKVLQAD [YMR129W/POM152] ... 3.05

Would you mind listing protein stability index for each of the following sequences?
1. NFHNSKKRMNSNQERCH [RRI1]
2. LGDMENNLEKYPFRYKT [RTT102]
3. HYPEIEDLVDRIENPEK [RPP0]

Outgoing:
1. 2.51
2. 3.39
3. 3.17

Incoming: Suppose we examine the sequence SKDELREKLAEVYKAEK [RPS24A] ; what protein stability index value has been reported?
Outgoing: 3.48

* * *

Experiment: protein stability index of a GFP-peptide fusion (yeast GPS) (PSI 1-4); higher = more stable; sorted into four equal gates, so the index is relative within each strain
Settings: pdr5∆
Decide by protein stability index: equal to or exceeding 3 means fulfilled, less means not fulfilled.

GPAAAKPMAFSNTTTHV [MTR3] ... fulfilled
LEDLFSYRNGMASYMLN [YJR042W/NUP85] ... not fulfilled
NNDLESVSMLLQYYILE [RRI2] ... fulfilled
DDFTDAIQFVKENELLF [YCS4] ... not fulfilled
FSHSLTTILSFSSPAAL [NUT1] ... not fulfilled

Okay, now this sequence:
Incoming: Hello, I need to know if VVNDLVGEKLVVVVLEE [SIR3] has measured protein stability index not below 3. Thanks!
Outgoing: fulfilled

* * *

Kindly supply the reported protein stability index values for the records listed here.
Test: protein stability index of a GFP-peptide fusion (yeast GPS) (PSI 1-4); higher = more stable; sorted into four equal gates, so the index is relative within each strain
Details: doa10∆

Some solved entries appear below for comparison.
SIGSIYQWNLDGLQQLD [RPN1] ... 3.26
VSTETFEQPSQREEAKK [RPL27A] ... 2.9
IVQAKEPNLAAQQDSTN [ECM29] ... 2.51

Would you mind listing protein stability index for each of the following sequences?
1. VVNDLVGEKLVVVVLEE [SIR3]
2. KKNNKIKESSKKIKGKS [SRP21]
3. LETLFNRWHSESWANQL [FAS2]
4. IGFITSGTYHLNCGNGM [POP1]
5. KKRNMPLQSIPEIGNRK [SWI1]
6. EVDYEDKDNPVDSRNET [SRB4]

Outgoing:
1: 3.42; 2: 3.07; 3: 2.81; 4: 2.56; 5: 2.62; 6: 3.46

Would you mind listing protein stability index for each of the following sequences?
1. KNLQRESCEDILDLKEF [RTT102]
2. PFTDRSVVRGNTFKVLS [COB]
3. SCGYPSAKTRSHNWAAK [RPL37B]
4. AQANNNNNGLPQNGNIN [GAL11]
5. EFDSTDTSLCINGEPSI [RRI1]
6. VLEDCRHLPMYTEFIDS [ITC1]

Outgoing:
1. 3.59
2. 2.25
3. 2.95
4. 3.04
5. 3.16
6. 2.34

* * *

Assay: protein stability index of a GFP-peptide fusion (yeast GPS) (PSI 1-4); higher = more stable; sorted into four equal gates, so the index is relative within each strain
Settings: ubr1∆
Decide by protein stability index: equal to or exceeding 3 means class 1, less means class 0.

SSLFQEKLLETNVSKQN [ECM29] ... class 0
PYSKNAVEQLAGCKIDN [YDL088C/ASM4] ... class 0
DKLSGCYAPRPSAGPHK [RPS4A] ... class 0
KNSRVELQKIYDRHQSS [SMC4] ... class 1

Incoming: Hello, I need to know if VFKATSSTDEESWFKAL [FAS1] has measured protein stability index not below 3. Thanks!
Outgoing: class 0

Incoming: Next sequence: SWYLNTFDGIRMSSEEV [GRR1]
Outgoing: class 0

Incoming: Next sequence: SVFGFRTQFGGGKSVGF [RPS24A]
Outgoing: class 0

Incoming: Next sequence: IIKDYVLDIVPGSSITE [SRB4]
Outgoing: class 1

Incoming: Next sequence: IDQVNELVTISWVQPRI [RPN9]
Outgoing: class 1

Incoming: Next sequence: GAFTIALAYAGTGNNSA [RPN2]
Outgoing: class 0

Data origin: the supplement of paper PMC9732359
